The reported measurements were obtained from PubChem BioAssay (NCI).

measurement.notes: NCI Yeast Anticancer Drug Screen. Data for the sgs1 mgt1 strain (AID 161);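 note: 0% = growth of cultures given vehicle only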
details: S. cerevisiae sgs1 mgt1 strain, at 50.0 µM, hits give high values
This is part of a sample that, as a whole, favours compounds with a hit. Of some 79,000 tested, about 15% had one in any assay.
For each of the compounds below, state its growth inhibition.
One number for each entry, in %.

Guide cases for growth inhibition, answers given:
O=C(O)/C=C\c1cccc([N+](=O)[O-])c1: 7.4
CN(CC(C)(C)C(O)c1ccccc1)C(=O)c1ccccc1 (stereo not given): 12.7

Batch request: growth inhibition for each of the following compounds.
1. Cc1cc(C)n2c(-c3ccccc3)nnc2c1
2. O=[N+]([O-])c1c(Cl)cc(Cl)c([N+](=O)[O-])c1-c1ccccc1
3. C=C1c2nc3ccccc3n2C=C(c2ccc(C)cc2)N1c1ccc(OC)cc1
4. CCCCCCCCOC(=O)c1cc([N+](=O)[O-])c(Sc2ncnc3nc[nH]c23)c([N+](=O)[O-])c1
5. COc1ccc(C2C(=O)C(Cl)N2Nc2nc(C)cc(=O)[nH]2)cc1OC (stereo not given)
6. O=C(O)C(Cc1ccccc1)NS(=O)(=O)Cc1ccccc1 (stereo not given)
7. CC(C)(C)C1=CC(=C(c2ccc(-c3c4nc(c(-c5ccc(C(=C6C=C(C(C)(C)C)C(=O)C(C(C)(C)C)=C6)c6cc(C(C)(C)C)c(O)c(C(C)(C)C)c6)cc5)c5ccc([nH]5)c(-c5ccc(C(=C6C=C(C(C)(C)C)C(=O)C(C(C)(C)C)=C6)c6cc(C(C)(C)C)c(O)c(C(C)(C)C)c6)cc5)c5nc(c(-c6ccc(C(=C7C=C(C(C)(C)C)C(=O)C(C(C)(C)C)=C7)c7cc(C(C)(C)C)c(O)c(C(C)(C)C)c7)cc6)c6ccc3[nH]6)C=C5)C=C4)cc2)c2cc(C(C)(C)C)c(O)c(C(C)(C)C)c2)C=C(C(C)(C)C)C1=O

Result:
[-20.2, -14.3, -7, 25.9, 4.2, -4.5, -1.75]

Give one value of growth inhibition per listed compound.
1. O=C1CC(O)C2C(=O)c3c(c(Cl)c4ccccc4c3O)C(=O)C2C1 (stereo not given)
2. O=C(O)c1ccc(C(=O)c2ccccc2)c(C(=O)O)c1
3. CCC(=O)NCCCCCN1CCCCC1
4. CSC(=Nc1nnc(-c2ccc([N+](=O)[O-])cc2)s1)SC

Result:
1: 10.2; 2: -19.3; 3: 9.75; 4: -23.6

Hey, quick one: what's growth inhibition for each of these?
1. CCCCSC(CC(O)C(O)COC(=O)c1ccc([N+](=O)[O-])cc1)SCCCC (stereo not given)
2. CC1=C(C)CN(CCC(=O)O)C(C(N)=O)C1 (stereo not given)
3. O=C(NC1CC1)C1CC1
4. Cc1cn(C2CC(O)C(CO)C2C)c(=O)[nH]c1=O (stereo not given)
5. NC(=O)[C@H]1CC2CCC1C2 (stereo not given in full)
6. CC1(C(=O)O)C(=O)Oc2c1c1ccccc1c1ccccc21 (stereo not given)
7. CC1CN=C(c2ccccc2)C(c2ccccc2)=N1 (stereo not given)

Result:
[2.7, -3.8, -1.45, -17.2, 3.4, 0.75, -6.4]

Field: growth inhibition. Fill in for each record below.
1. Cc1cc[n+](CC(=O)CCc2ccc(C(=O)C[n+]3ccc(C)cc3)cc2)cc1
2. CC1=C(CC2C(=O)N(c3ccccc3)S(=O)(=O)NC2C)C(=O)N(c2ccccc2)S(=O)(=O)N1C (stereo not given)
3. CC1C=CC(C)S(=O)N1C(=O)Cc1ccccc1 (stereo not given)
4. CN(C)c1ccc(/C=c2\sc3nnc(Cc4ccccc4)n3c2=O)cc1
5. O=C(OCC(Br)C(Br)c1ccccc1)c1ccccc1 (stereo not given)
6. NC(=O)C(O)(c1ccc(Br)cc1)C(Cl)Cl (stereo not given)

Result:
[34.3, -14, -9.35, -0.25, -2, -5.55]

###

measurement.notes: NCI Yeast Anticancer Drug Screen. Data for the bub3 strain (AID 167)
details: S. cerevisiae bub3 mutant strain, at 50.0 µM
Method: Growth inhibition of yeast strains with defined genetic alterations is measured as a screen for potential anti-cancer activity. Selected strains with alterations in DNA damage repair or cell cycle control were exposed to compounds and growth inhibition was measured relative to vehicle treated controls. The strain used in this assay is bub3
About 79,000 compounds went through this panel and 15% of them were active in at least one assay; those are over-represented in the sample as a whole. Activity calls are given as the source filed them. Rule as the data show it: active = growth inhibition above about 70%; inactive = the rest.
Just give me one of these, please: yes (1) (active), no (0) (inactive)

The following compounds have reported results that may help.
CN(C)CCCNCc1c[nH]c(=O)[nH]c1=O: no (0)
CN(C)c1ccc2[nH]cc(C(=O)O)c(=O)c2c1: no (0)
CCCCn1c(CCC)nc([N+](=O)[O-])c1Sc1ncn[nH]1: no (0)
Cc1cc2c(c3ccccc13)Cc1ccccc1-2: no (0)

Ask: What did this assay record as the result for CC1(C)OCCS1 ?
Result: no (0)

Ask: Recorded test call requested for O=C(O)c1cc(O)c(O)c(Cl)c1
Result: no (0)

Ask: Call for entry Cc1cc(=O)[nH]c(NNC(C#N)c2ccc([N+](=O)[O-])cc2)n1 (configuration not stated) :
Result: no (0)

Ask: Per the records of this test, what outcome belongs to CC12CCC[C@@](C)(C(=O)OC3OC(CO)C(O)C(O)C3O)[C@H]1CCC13CC4CC(OC4(CO)[C@H]1O)[C@@H]23 (some centres not stated) ?
Result: no (0)

###

measurement.notes: NCI Yeast Anticancer Drug Screen. Data for the mec2-1 strain (AID 157)
details: S. cerevisiae mec2-1 strain, at 50.0 µM
The panel holds about 79,000 compounds, 15% with a hit somewhere; the sample as a whole holds those more often. Active and inactive are the calls of the source. No stated cut-off is given here; in the data, active means growth inhibition above about 70%; inactive means the rest.
Give your call using only these classes: active, inactive

COc1cc(CCCCC(=O)O)ccc1OC(=O)c1ccccc1: inactive
COc1cc(C2(C)SCCCS2)cc(OC)c1OC: inactive
CCCCOC(=O)NC(=O)c1cn(CCCOC(=O)CCCCCCCCC(=O)OCCCn2cc(C(=O)NC(=O)OCCCC)c(=O)[nH]c2=O)c(=O)[nH]c1=O: inactive
CC(=O)c1ccc(NC(=O)CSc2nc(C)nc3c2sc(=S)n3-c2ccccc2)cc1: inactive
CC1(C)C2CCC(I)(C2)C1I (stereo unspecified): inactive

Ask: Answer briefly: the call reported for COc1cccc(N2C(=O)[C@H]3[C@H]4CC(C(C)(C)C)CC[C@H]4c4c([nH]c5ccccc45)[C@H]3C2=O)c1 (stereo partly specified) in this assay.
Result: inactive

Ask: Record lookup: outcome of this test for COc1ccc(-n2nnnc2C2(Nc3ccccc3)CCN(Cc3ccccc3)CC2)cc1 ?
Result: inactive

Ask: Recorded test call requested for C=C(Cl)COC(=O)C(C)O (stereo unspecified)
Result: inactive

Ask: Please share the test call associated with NC(CCCCC(=O)O)C(=O)O (stereo unspecified) .
Result: inactive

Ask: Fill in: this test's call for CC12CCC(C(=O)n3c1nc1ccccc13)C(C)(C)O2 (stereo unspecified) is ___
Result: inactive

Ask: Outcome? CCC(Cc1ccccc1)OC(=O)c1ccccc1C(=O)O (stereo unspecified)
Result: inactive

Ask: Which outcome did this test record for the compound CC(=O)NC(CCc1ccccc1)C(=O)O (stereo unspecified) ?
Result: inactive

Ask: GET /call?item= Cc1nc(C)c(N2CCN(CN)CC2)c(=O)[nH]1 returns the recorded outcome of this test.
Result: inactive

Ask: Check the results log: what was the call for COc1cc2c(cc1OC)C1=NN(c3ccccc3)C(=O)C1CC2 (stereo unspecified) ?
Result: inactive

Ask: Hey, what did the test say about CCSc1sc(=Nc2ccc(N=c3sc(C)c(SC)s3)cc2)sc1-c1ccc(C)cc1 ?
Result: inactive

Ask: Check the results log: what was the call for Cc1cc(NC(=O)C(=O)CC(=O)c2ccc(Cl)s2)no1 ?
Result: inactive

Ask: GET /call?item= OCCNc1nc(NCCO)c2cn[nH]c2n1 returns the recorded outcome of this test.
Result: inactive

Ask: So what was the verdict on COC(=O)[C@H]1[C@H]2C[C@@H]3c4[nH]c5cc(OC)ccc5c4CCN3C[C@H]2C[C@@H](OC(=O)c2cc(OC)c(OC)c(OC)c2)[C@@H]1OC in this test?
Result: inactive

Ask: Called result for CN(C)C(=S)Oc1ccc([N+](C)(C)C)cc1
Result: inactive

Ask: Kindly provide the recorded test outcome for the following compound: Nc1ncnc2nc(N=Nc3ccc(S(=O)(=O)O)cc3)[nH]c12
Result: inactive

Ask: // outcome(item) with item = CCOC(=O)c1cc(C)[nH]c1C
Result: inactive

Ask: Field: outcome | Entry: O=C1C2=C(c3ccccc31)C(c1ccc(Cl)cc1)NC(=S)N2 (stereo unspecified)
Result: inactive
